- assay overview: physchem
- measurement conditions: LogPA
In this section, each of the molecules is paired with its reported chromatographic logP.

// returns reported chromatographic logP for input CCC(=O)Nc1cc(-c2c(-c3ccc(Cl)cc3F)nn(C)c2SC)ccn1
2.7

* * *

- assay overview: physchem
- measurement conditions: pH 2.3, LogP (pH 2.3)
Please note: Y applies when chromatographic logP is 4 or greater, and N applies otherwise.

Take a look at these entries with their results.
INSERT INTO results (compound, class_name) VALUES
  ('N#Cc1cc(-c2c(-c3ccncc3)cnn2C2CCCCO2)ccc1F (centres unmarked) [[X-12]]', 'N'),
  ('Clc1ccc(-c2c(-c3ccncc3)cnn2C2CCCCO2)cc1 (centres unmarked) [[X-18]]', 'N'),
  ('COC(=O)C(C(C)C)n1cc(Br)c(-c2ccc(F)cc2)n1 (centres unmarked) [[VI-16]]', 'Y');

Okay, now this compound:
Kindly determine if chromatographic logP recorded for Clc1cccc(-c2c(-c3ccncc3)cnn2C2CCCCO2)c1Cl (centres unmarked) [[X-20]] is above or exactly 4.
N

* * *

- System: Mycosphaerella graminicola
- assay overview: Example G: in vivo test on Mycosphaerella graminicola (wheat leaf blotch disease)
- measurement conditions: Zymoseptoria tritici, wheat plants sprayed 24 hours before inoculation, scored after 21 to 28 days, read-out: % Wirkungsgrad
- Description: In Vivo Test on Mycosphaerella Graminicola (Wheat Leaf Blotch Disease) An aqueous suspension of the active substance was prepared by homogenization of a mixture of acetone/Tween/dimethyl sulphoxide and subsequent dilution with water to the desired concentration. […] After 21 to 28 days they are scored in comparison with the control plants.
The entries below are paired with their reported pest or weed control at 500 ppm.
State just the number; it will be interpreted in %.

Some compounds with known pest or weed control at 500 ppm results, for comparison:
INSERT INTO results (compound, subject_of_test, data_value) VALUES
  ('CC(C)Cn1ncc(-c2ccncc2)c1-c1c(F)cccc1F', 'Mycosphaerella graminicola', 98),
  ('CC(C)n1ncc(-c2ccncc2)c1-c1c(F)cccc1F', 'Mycosphaerella graminicola', 95),
  ('CC(C)n1ncc(-c2ccnc(NC(=O)C(C)(C)C)c2)c1-c1ccc(F)cc1', 'Mycosphaerella graminicola', 83),
  ('CC(C)n1cc(-c2ccnc(NC(=O)C3CC3)c2)c(-c2ccc(F)cc2)n1', 'Mycosphaerella graminicola', 94);

Entry CCC(C)n1cc(-c2ccncc2)c(-c2c(F)cccc2F)n1 (centres unmarked) : reported pest or weed control at 500 ppm = ?
95

* * *

In this section, each of the molecules is paired with its reported pest or weed control at 1000 ppm.
- System: Rhynchosporium secalis
- assay overview: Example S: in vivo test on Rhynchosporium secalis (leaf scald in barley/protective)
- measurement conditions: 336 h, barley, protective, 1000 ppm active substance, assessed 14 days after inoculation, read-out: % Wirkungsgrad (activity level)
Numbers only here, please. The scale is %.

Sample records with pest or weed control at 1000 ppm:
INSERT INTO assay_data (smiles, measured_property, value_unit, data_value) VALUES
  ('CCC(=O)Nc1cc(-c2cn(CC(F)F)nc2-c2ccc(F)cc2)ccn1', 'pest or weed control at 1000 ppm', '%', 90),
  ('CCC(=O)Nc1cc(-c2cn(CC)nc2-c2ccc(F)cc2)ccn1', 'pest or weed control at 1000 ppm', '%', 90),
  ('CC(C)C(=O)Nc1cc(-c2cn(CC3CC3)nc2-c2ccc(F)cc2)ccn1', 'pest or weed control at 1000 ppm', '%', 90),
  ('CC(C)C(=O)Nc1cc(-c2cn(CC(F)F)nc2-c2ccc(F)cc2)ccn1', 'pest or weed control at 1000 ppm', '%', 100),
  ('CC(C)n1cc(-c2ccnc(NC(=O)[C@H](C)O)c2)c(-c2ccc(F)cc2)n1', 'pest or weed control at 1000 ppm', '%', 71);

Name the recorded pest or weed control at 1000 ppm for CC(C)Cn1cc(-c2ccnc(N)n2)c(-c2ccc(F)cc2)n1 .
71

Try CC(C)Cn1cc(-c2ccnc(NC(=O)C(C)C)c2)c(-c2ccc(F)cc2)n1 next.
88

Further, for Fc1ccc(-c2nn(CC(F)F)cc2-c2ccncc2)cc1 ?
100

What do you get for CC(C)n1cc(-c2ccnc(NC(=O)C3CC3)c2)c(-c2ccc(F)cc2)n1 ?
86
